The reported measurements were obtained from the RNAGym collection of RNA variant scans (doi:10.7554/elife.90254).

B1: LINE1-full (parent)
chain: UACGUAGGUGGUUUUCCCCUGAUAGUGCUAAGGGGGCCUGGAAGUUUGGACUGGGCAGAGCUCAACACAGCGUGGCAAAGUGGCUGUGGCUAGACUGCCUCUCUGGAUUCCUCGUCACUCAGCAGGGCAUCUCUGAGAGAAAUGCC

variants of: B1; assay: self-cleavage, relative activity (ratio to wild type); higher = more cleavage; in vitro, sequencing; the parent is a self-cleaving ribozyme
Records here are stratified by self-cleavage; strata: label 0 (below 0.2), label 1 (0.2 to below 1), label 2 (1 or more)

INSERT INTO results (macromolecule_sequence, class) VALUES
  ('UACGUAGGUGGUUUUCCCCUGAUAGUGCUAAGGGGGCCUGGAAGUUUGGACUGGGCAGAGCUCGACACAGCGUGGCAAAGUGGCUGUGGCUAGACUGCCUCUCUGGAUUCCUCGUCACUCAGCUGGGCAUCUCUGAGAGAAAUGCC [A64G A124U]', 'label 1'),
  ('UACGUAGGUGGUUUCCCCCUGAUAGUGCUAAGGGGGCCUGGAAGUUUGGACUGGGCAGAGCUCAACACAGCGUGGCAAAGUGGCUGUGGCUAGACUGCCUCUCUGGAUUCCUCGUCACUCAGCAGGGCAUCUCUGAGGGAAAUGCC [U15C A138G]', 'label 2'),
  ('UACGUAUGUGGUUUUCCCCUGAUAGUGCUAAGGGGGCCUGGAAGUUUGGACUGGGCAGAGCUCAACACAGCGUGGCAAAGUGGCAGUGGCUAGACUGCCUCUCUGGAUUCCUCGUCACUCAGCAGGGCAUCUCUGAGAGAAAUGCC [G7U U85A]', 'label 0'),
  ('UACGUAGAUGGUUUUCCCCUGAUAGUGCUAAGGGGGCCUGGAAGUUUGGACUGGGCAGGGCUCAACACAGCGUGGCAAAGUGGCUGUGGCUAGACUGCCUCUCUGGAUUCCUCGUCACUCAGCAGGGCAUCUCUGAGAGAAAUGCC [G8A A59G]', 'label 0'),
  ('UACGUAGGUGGUUUUCCCCUGAUAGUGCUAAGGGGGCCUGGAACUUUGGACUGGGCAGAGCUCAACACAGCGUGGCAAAGUGGCUGUGGCUAGACUGCCUCUCUGGAUUCCCCGUCACUCAGCAGGGCAUCUCUGAGAGAAAUGCC [G44C U112C]', 'label 2');

QUERY: Which bin should I file UACGUAGGUGGUCUUCCCCUGAUAGUGCUAAGGGGACCUGGAAGUUUGGACUGGGCAGAGCUCAACACAGCGUGGCAAAGUGGCUGUGGCUAGACUGCCUCUCUGGAUUCCUCGUCACUCAGCAGGGCAUCUCUGAGAGAAAUGCC [U13C G36A] under?
RESULT: label 2

QUERY: Which bin should I file UACGUAGGUGGCUUUCCCCUGAUAGUGCUAAGGGGGCCUGGAAGUUUGGACUGGGCAGAGCUCAACACAGCGUGGCAAAGUGGCUGUAGCUAGACUGCCUCUCUGGAUUCCUCGUCACUCAGCAGGGCAUCUCUGAGAGAAAUGCC [U12C G88A] under?
RESULT: label 0

QUERY: Which bin should I file UACGUAGGUGGUUUUCCCCUGAUAGUGCUAAGGGGGCCUGGAAGUUCGGACUGGGCAGAGCUCAACACAGCGUGGCAAAGUGGCUGUGGCUAGACUGCCUCUCUGGAUUCCUCGUCCCUCAGCAGGGCAUCUCUGAGAGAAAUGCC [U47C A117C] under?
RESULT: label 2

QUERY: Which bin should I file UACGUAGGUGGUUUUCCCCUGAUAGUGCUAAGGGGGCCUGGAAGUUCGGACUGGGCAGAGCUCAACACAGCGGGGCAAAGUGGCUGUGGCUAGACUGCCUCUCUGGAUUCCUCGUCACUCAGCAGGGCAUCUCUGAGAGAAAUGCC [U47C U73G] under?
RESULT: label 2
